Items are presented alongside their recorded GI50.
Tested on: NCI-H226
Measurement notes: NCI tumour cell line growth inhibition, 48 h
The source made the active and inactive calls. No stated cut-off is given here; in the data, active = GI50 up to about 1.1 µM and inactive = higher.

Compound	GI50
NC1N=Nc2ccccc21 (configuration not stated)	> 100 µM (inactive)
O=c1ccc2ccccc2c2ccccc12	4.27 µM (inactive)
CC(=O)OCc1nc(C#N)c(N)o1	> 100 µM (inactive)
C/C(CC(=O)Nc1cc(Cl)c(Cl)cc1Cl)=N\NC(N)=O	> 100 µM (inactive)
COc1cc2c3c(cc(Cl)nc3c1OC)C(=O)C(=O)N2	21.1 µM (inactive)
Cn1c2ccccc2n2c(=O)c(-c3ccc(O)cc3)nnc12	46.6 µM (inactive)
COc1ccc(Br)c2c1CC(C(=O)O)CC2 (configuration not stated)	> 100 µM (inactive)
O=C1c2ccccc2C(=O)c2sc(Nc3ccccc3Cl)nc21	5.56 µM (inactive)
CCOC(=O)[C@@]12C(C)=CC(=O)O[C@]1(C)C[C@H]2C#N	50.9 µM (inactive)
CC1CN1C(=O)NCCCCCCNC(=O)N1CC1C (configuration not stated)	> 75.7 µM (inactive)
COC[C@@H]1[C@H]2OC(C)(C)O[C@H]2C(=O)N1C(=O)c1ccc(OC)cc1	> 100 µM (inactive)
CC(C)/C=N\n1c(N)c(C#N)c(C#N)c1C(C)C	14.7 µM (inactive)
COc1cc(Br)c(CC2NCCc3cc(OC)c(OC)cc32)cc1OC (configuration not stated)	32.8 µM (inactive)
CSc1ccc(-c2cc(-c3nc4ccccc4[nH]3)no2)cc1	40.5 µM (inactive)
CC(C)(C)OC(=O)NC(Cc1ccc(O)cn1)C(N)=O (configuration not stated)	> 100 µM (inactive)
OCC1OC(NCCNCCNC2OC(CO)C(O)C(O)C2O)C(O)C(O)C1O (configuration not stated)	> 100 µM (inactive)
O=C1/C(=C/c2cccc([N+](=O)[O-])c2)N=C(c2ccccc2)N1c1nc2ccc(Sc3ccccc3)cc2[nH]1	> 100 µM (inactive)
O=C1c2ccccc2-c2nc3ccc(O)cc3n21	> 100 µM (inactive)
O=C1CC2C(=O)C1C(C(=O)O)C2C(=O)O (configuration not stated)	> 100 µM (inactive)
CC1(C)OC2C(CO)OC(N/C(=N/C#N)Oc3ccccc3)C2O1 (configuration not stated)	> 100 µM (inactive)
COC(=O)C1=C(CCC[C@H](C)O[Si](C)(C)C(C)(C)C)NC(=O)N2[C@@H](CCO)CC[C@H]12	14.6 µM (inactive)
CN1CCC/C1=N\C#N	> 100 µM (inactive)
COc1ccc2c(c1)CC[C@@H]1[C@@H]2CC[C@]2(C)/C(=N/OCCN3CCCCC3)CC[C@@H]12	5.43 µM (inactive)
O=C(O)c1cnc2cc(OCc3ccccc3)ccc2c1O	18.3 µM (inactive)
CC(=O)OC1COC(N2C(=O)C(=O)c3c(C)cc(Cl)nc32)C(OC(C)=O)C1OC(C)=O (configuration not stated)	> 100 µM (inactive)
O=C(c1ccccc1)c1nnn(Cc2cccc(Cl)c2)c1C(=O)c1ccccc1	> 100 µM (inactive)
O=C1c2ccccc2S(=O)(=O)c2ccccc21	> 100 µM (inactive)
O=S1(=O)OCCCOS(=O)(=O)C1Br	> 100 µM (inactive)
NCCN/C(=N\c1ccccc1)Nc1ccccc1	> 100 µM (inactive)
C[C@@H]1CCC([C@@H](C)[C@H]2CC[C@H]3[C@@H]4CC[C@H]5C[C@@H](O)CC[C@]5(C)[C@H]4CC[C@]23C)=NC1	> 29.8 µM (inactive)
C#CCNC(CS)C(=O)O (configuration not stated)	> 100 µM (inactive)
CC(C)(C)c1ccc(OCCOCCOc2ccc(C(C)(C)C)cc2S(N)(=O)=O)c(S(N)(=O)=O)c1	40.7 µM (inactive)
CC(NNC(=O)c1cc[n+]([BH2-]C#N)cc1)c1cccc(F)c1 (configuration not stated)	> 100 µM (inactive)
CNC(=O)/C=C/C1=CN2C(=O)c3ccc(C)c(O)c3NC(OC)C2C1 (configuration not stated)	0.0141 µM (active)
Cc1c2c(OCC(O)CN3CCN(c4ccccc4)CC3)nn(C)c(=O)c2c(C)n1-c1ccccc1 (configuration not stated)	23.2 µM (inactive)
NC(=O)N1N=C2c3ccccc3CC[C@@H]2C1c1ccccc1 (some centres not stated)	> 100 µM (inactive)
CC(Oc1ccccc1)C(=O)NNC(=O)OC(C)(C)C (configuration not stated)	> 100 µM (inactive)
C/C(=N\NC(=O)C(N)=O)c1c(O)cc(C)oc1=O	> 100 µM (inactive)
C/C(=N\NS(=O)(=O)c1ccc([N+](=O)[O-])cc1)c1ccc[n+]([O-])n1	1.77 µM (inactive)
CO[C@H]1C=CO[C@@]2(C)Oc3c(C)c(O)c4c(O)c(c(CN5CCN(C)CC5)c(O)c4c3C2=O)NC(=O)/C(C)=C\C=C[C@H](C)[C@H](O)C(C)[C@@H](O)C(C)[C@H](OC(C)=O)[C@@H]1C (some centres not stated)	> 63.5 µM (inactive)
CC(=O)NNc1nc(C)c(C(=O)/C=C/c2cccc([N+](=O)[O-])c2)s1	> 100 µM (inactive)
CCOC(=O)NC(=O)c1cn(CCCCCCOC(=O)NCCCCCCNC(=O)OCCCCCCn2cc(C(=O)NC(=O)OCC)c(=O)[nH]c2=O)c(=O)[nH]c1=O	> 100 µM (inactive)

Values from ChEMBL document CHEMBL1201862
